Target: T1, LRP6-Fc (R&D Systems, catalog No: 1505-LR) (human, UniProt O75581 20-1370)
T1 construct: Purchased reagent; also called LRP6 protein; 360 KD homodimer antigen LRP6-Fc; not shown: Fc part of the purchased fusion
T1 sequence (looked up): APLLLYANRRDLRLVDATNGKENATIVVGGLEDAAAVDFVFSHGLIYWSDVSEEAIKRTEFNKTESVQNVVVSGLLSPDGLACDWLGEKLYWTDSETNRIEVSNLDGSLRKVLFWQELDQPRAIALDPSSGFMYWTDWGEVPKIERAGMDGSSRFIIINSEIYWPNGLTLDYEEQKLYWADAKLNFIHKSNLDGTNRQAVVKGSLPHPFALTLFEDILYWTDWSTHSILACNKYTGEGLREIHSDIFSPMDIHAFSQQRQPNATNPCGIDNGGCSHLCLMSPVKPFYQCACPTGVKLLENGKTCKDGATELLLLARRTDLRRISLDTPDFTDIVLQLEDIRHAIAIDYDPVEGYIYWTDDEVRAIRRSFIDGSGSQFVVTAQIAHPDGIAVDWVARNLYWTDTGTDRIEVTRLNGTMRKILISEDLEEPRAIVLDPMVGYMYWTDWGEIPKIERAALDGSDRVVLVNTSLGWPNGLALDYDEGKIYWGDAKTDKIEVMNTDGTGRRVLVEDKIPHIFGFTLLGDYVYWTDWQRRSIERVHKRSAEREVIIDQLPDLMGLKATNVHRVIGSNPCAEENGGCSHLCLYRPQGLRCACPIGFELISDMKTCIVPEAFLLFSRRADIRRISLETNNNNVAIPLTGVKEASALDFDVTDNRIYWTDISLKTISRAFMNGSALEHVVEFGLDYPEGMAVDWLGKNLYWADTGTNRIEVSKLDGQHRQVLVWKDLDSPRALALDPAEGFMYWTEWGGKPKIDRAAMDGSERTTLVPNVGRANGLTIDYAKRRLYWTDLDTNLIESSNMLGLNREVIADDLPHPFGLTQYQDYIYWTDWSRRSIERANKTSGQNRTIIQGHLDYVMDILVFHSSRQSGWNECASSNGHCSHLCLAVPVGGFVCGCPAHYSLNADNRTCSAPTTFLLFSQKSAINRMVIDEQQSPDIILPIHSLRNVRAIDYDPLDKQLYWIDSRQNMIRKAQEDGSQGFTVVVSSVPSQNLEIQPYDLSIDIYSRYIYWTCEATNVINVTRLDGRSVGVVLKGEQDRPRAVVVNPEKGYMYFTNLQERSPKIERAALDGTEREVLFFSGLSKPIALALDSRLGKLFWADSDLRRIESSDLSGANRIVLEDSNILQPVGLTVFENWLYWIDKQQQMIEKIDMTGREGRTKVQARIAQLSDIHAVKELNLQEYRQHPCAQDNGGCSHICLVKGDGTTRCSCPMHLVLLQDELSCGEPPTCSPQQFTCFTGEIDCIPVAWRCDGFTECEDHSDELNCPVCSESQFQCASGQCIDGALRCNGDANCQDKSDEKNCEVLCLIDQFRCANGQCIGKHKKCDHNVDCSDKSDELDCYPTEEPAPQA
Experiment: ELISA on coated LRP6-Fc, detection with pentaHis-HRP
reported.metric: EC50 (nM)

binder: scFv08168 D1 (VH:I34M + VH:S49A) (scFv, V domains shown, Double mutant of scFv08168 (His tag); also called MOR08168D1 mutant; double mutant D1) VH: QVQLVESGGGLVQPGGSLRLSCAASGFTFSDYVMNWVRQAPGKGLEWVAGISWSGVNTHYADSVKGRFTISRDNSKNTLYLQMNSLRAEDTAVYYCARLGATANNIRYKFMDVWGQGTLVTVSS VL: DIELTQPPSVSVAPGQTARISCSGDSLRNKVYWYQQKPGQAPVLVIYKNNRPSGIPERFSGSNSGNTATLTISGTQAEDEADYYCQSYDGQKSLVFGGGTKLTVL
reported.metric: EC50
u: nM
test.result: 1.61

binder: scFv08168 wild type (scFv, V domains shown, One polypeptide (scFv with His tag); also called MOR08168 scFv wild type) VH: QVQLVESGGGLVQPGGSLRLSCAASGFTFSDYVINWVRQAPGKGLEWVSGISWSGVNTHYADSVKGRFTISRDNSKNTLYLQMNSLRAEDTAVYYCARLGATANNIRYKFMDVWGQGTLVTVSS VL: DIELTQPPSVSVAPGQTARISCSGDSLRNKVYWYQQKPGQAPVLVIYKNNRPSGIPERFSGSNSGNTATLTISGTQAEDEADYYCQSYDGQKSLVFGGGTKLTVL
reported.metric: EC50
u: nM
test.result: 2.04

binder: scFv06475 VH:G34V (scFv, name in Kabat numbering, V domains shown, Point mutant of scFv06475 (His tag)) VH: QVQLKESGPALVKPTQTLTLTCTFSGFSLSNRGVGVGWIRQPPGKALEWLAWIDWDDDKSYSTSLKTRLTISKDTSKNQVVLTMTNMDPVDTATYYCARMHLPLVFDSWGQGTLVTVSS VL: DIVLTQSPATLSLSPGERATLSCRASQFIGSRYLAWYQQKPGQAPRLLIYGASNRATGVPARFSGSGSGTDFTLTISSLEPEDFATYYCQQYYDYPQTFGQGTKVEIK
reported.metric: EC50
u: nM
test.result: 27.4

Value source: patent US20130058934A1
